system: HeLa MZ; assay: LBPA endosome anti-LBPA integrated intensity (sum per cell), Z-score; higher = more LBPA staining; conditions: compound concentration in added solution (µM; 5 µl added to 20 µl cells): 10; 18 h
Where a name gives a salt, the structure may show the parent alone.
parameter_measured: LBPA endosome anti-LBPA integrated intensity (z-score)
One number for each entry.

Query string: Give reported LBPA endosome anti-LBPA integrated intensity (z-score) value for NC(=O)C(c1ccccc1)(c1ccccc1)[C@@H]1CCN(CCc2ccc3c(c2)CCO3)C1 [Darifenacin hydrobromide]
Result string: 1.76

Each molecule below has a reported value. Please supply its LBPA endosome anti-LBPA integrated intensity (z-score).
1. CC(=O)OCC1=C(C(=O)O)N2C(=O)[C@@H](NC(=O)Cc3cccs3)[C@H]2SC1 [Cephalothin sodium salt]
2. CCCNC(=O)NS(=O)(=O)c1ccc(Cl)cc1 [Chlorpropamide]
3. C[C@@H]1CCC[C@H](C)N1NC(=O)c1ccc(Cl)c(S(N)(=O)=O)c1 [Clopamide]

Result string:
1: -0.884; 2: -1.65; 3: -1.24
